- Tested on: MDA-MB-231 breast
- assay_method_text: NCI-60 one-dose screen, 48 h (100 = growth as untreated, 0 = no growth, -100 = all killed)
- assay_conditions: 10 µM unless noted
About 83,000 compounds went through this panel and 20% of them were active in at least one assay; those are over-represented in the sample as a whole.
Below, each entry is listed with its recorded growth.
readout_name: growth (%)

# molecule, readout_name, unit_string, obs_value
data = [
    ("O=C(Cn1c2c(sc1=O)[C@H]1[C@@H](O)[C@@H](O)[C@H](O)[C@@H]1CS2)N1CCOCC1", "growth", "%", 106),
    ("COc1ccc(-c2nc(SCC(C)C)nc(NCCc3c[nH]c4ccccc34)c2C#N)cc1", "growth", "%", 36.5),
    ("CC1(C)CC[C@]2(C(=O)O)CC[C@]3(C)C(=CCC4[C@@]5(C)C[C@@H](O)[C@@H]6OC(c7ccc(F)cc7)OC[C@@]6(C)C5CC[C@]43C)C2C1 (some centres not stated)", "growth", "%", 50.6),
    ("O=C(NN1C(=O)/C(=C/C=C/c2ccc([N+](=O)[O-])o2)SC1=S)c1cccc(O)c1", "growth", "%", -98.4),
    ("COc1cccc(/C=C/c2nc3ccccc3c(=O)n2CC(=O)Nc2ccc(Cl)cc2)c1", "growth", "%", 27.9),
    ("COc1ccc2[nH]cc(-c3nnc(N)nc3-c3c[nH]c4ncc(Br)cc34)c2c1", "growth", "%", 73.4),
    ("C#CCOc1cc(N(CC)CC)ccc1C(C(=O)NC(C)(C)C)N(C(=O)C1CCc2cc(F)ccc2O1)c1ccc(F)cc1 (configuration not stated)", "growth", "%", 51),
    ("CC(=O)OC[C@@]1(C)C2CC[C@]3(C)C(CC=C4C5CC(C)(C)CC[C@]5(C(=O)Nc5ccc(C)cc5)CC[C@]43C)[C@@]2(C)C[C@@H](OC(C)=O)[C@@H]1OC(C)=O (some centres not stated)", "growth", "%", 66.1),
    ("CCN(CC)c1ccc(/C=N/Nc2nc(-c3ccc(C)cc3)cs2)c(O)c1", "growth", "%", 99.6),
    ("COc1cc2oc(-c3cccc(NC(=O)[C@H](Cc4ccccc4)NC(=O)OC(C)(C)C)c3)cc(=O)c2c(OC)c1OC", "growth", "%", 42.7),
    ("COc1cc2c(c(OC)c1OC)C(=O)CC(c1cccc(NC(=O)c3cc(N)ccc3Cl)c1)O2 (configuration not stated)", "growth", "%", 42.7),
    ("CC(C)Sc1nc(NCCc2c[nH]c3ccccc23)c(C#N)c(-c2ccccc2)n1", "growth", "%", -17.3),
    ("COCOc1cc2oc(C(=O)N[C@@H](Cc3ccccc3)C(O)C(=O)NCc3ccccc3)c(C)c(=O)c2cc1OCOC (some centres not stated)", "growth", "%", 20.7),
    ("COc1ccc(-c2ccnc(SCc3cc4cc(Cl)ccc4[nH]c3=O)n2)cc1", "growth", "%", 26.9),
    ("COc1ccc(-c2ccc(SCC(=O)Nc3ccc(S(N)(=O)=O)cc3Br)nn2)cc1", "growth", "%", 85.1),
    ("Cc1ccccc1[C@H]1C(C(=O)c2ccc(Cl)cc2)C2(N[C@@H]1c1ccccc1)C(=O)Nc1ccc(Cl)cc12 (some centres not stated)", "growth", "%", -72.2),
    ("COc1ccc(C(=O)/C=C/c2ccccc2Br)cc1S(N)(=O)=O", "growth", "%", -20.8),
]

Reference source for all entries: PubChem BioAssay (NCI)
